TARGET_OR_SYSTEM: human TLR8 (Homo sapiens, UniProt Q9NR97)
Sequence (Q9NR97 27-1041): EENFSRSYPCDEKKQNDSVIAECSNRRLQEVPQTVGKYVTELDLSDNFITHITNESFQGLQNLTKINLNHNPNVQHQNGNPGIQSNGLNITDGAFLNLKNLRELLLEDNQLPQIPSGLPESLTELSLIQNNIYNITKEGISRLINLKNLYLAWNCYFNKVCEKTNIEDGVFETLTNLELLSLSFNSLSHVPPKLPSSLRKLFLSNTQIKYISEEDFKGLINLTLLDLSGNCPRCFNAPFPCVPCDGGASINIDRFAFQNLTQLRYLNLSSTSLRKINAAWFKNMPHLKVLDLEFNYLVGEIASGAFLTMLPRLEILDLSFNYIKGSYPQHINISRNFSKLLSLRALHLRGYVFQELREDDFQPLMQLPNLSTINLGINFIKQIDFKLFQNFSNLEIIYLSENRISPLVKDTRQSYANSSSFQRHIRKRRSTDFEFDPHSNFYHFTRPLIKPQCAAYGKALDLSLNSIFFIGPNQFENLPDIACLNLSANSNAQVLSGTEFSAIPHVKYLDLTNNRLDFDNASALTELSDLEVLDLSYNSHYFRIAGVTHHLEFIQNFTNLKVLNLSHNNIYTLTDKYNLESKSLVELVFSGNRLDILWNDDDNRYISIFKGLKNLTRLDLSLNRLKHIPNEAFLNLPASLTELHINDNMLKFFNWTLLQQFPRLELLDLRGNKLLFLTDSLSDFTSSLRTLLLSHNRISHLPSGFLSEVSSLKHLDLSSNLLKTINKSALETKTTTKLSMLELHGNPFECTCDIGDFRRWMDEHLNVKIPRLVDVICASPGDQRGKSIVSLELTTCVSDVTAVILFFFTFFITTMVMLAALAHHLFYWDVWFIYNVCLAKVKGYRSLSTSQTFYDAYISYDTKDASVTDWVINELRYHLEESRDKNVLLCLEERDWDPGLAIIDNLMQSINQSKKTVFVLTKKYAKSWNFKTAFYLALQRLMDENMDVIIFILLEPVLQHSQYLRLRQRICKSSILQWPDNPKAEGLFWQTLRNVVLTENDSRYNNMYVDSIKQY
TEST_DESCRIPTION: TLR8 inhibition reporter assay (HEK-Blue cells, SEAP reporter)
PARTICULARS: HEK-Blue cells overexpressing human TLR8; stimulated with R848 15.9 μM; SEAP after 22 hour incubation
READOUT_KIND: IC50 (µM)
Field format: number, assumed µM, no unit text.

Cn1c(-c2ccc(S(C)(=O)=O)cc2)cc2ncc(-c3ccc(CN4CCN(CCC(C)(C)O)CC4)cc3)cc21 : 4.3
CC(C)N1C[C@H](C)N(c2ccc(-c3cnc4cc(-c5ccc(S(C)(=O)=O)cc5)n(C)c4c3)cc2)[C@@H](C)C1 : 4.5
CC(C)N1C[C@@H](C)N(c2ccc(-c3cnc4cc(-c5ccc(S(C)(=O)=O)cc5)n(C)c4c3)cc2)[C@@H](C)C1 : 4.2

Input: Give the reported IC50 for `COc1ccc(-c2cc3ncc(-c4ccc(N5CCN(C(C)C)CC5)cc4)cc3n2C)cc1OC` (system: human TLR8 (Homo sapiens, UniProt Q9NR97)).
Output: 7.2

Input: Give the reported IC50 for `CC(C)N1CCN(c2ccc(-c3cc4nc(-c5ccc(S(C)(=O)=O)cc5)cc-4n(C)c3)cc2)CC1` (system: human TLR8 (Homo sapiens, UniProt Q9NR97)).
Output: 11.1

Input: Give the reported IC50 for `Cn1c(-c2ccc(S(C)(=O)=O)cc2)cc2ncc(-c3ccc(CN4CCN(CC(C)(C)O)CC4)cc3)cc21` (system: human TLR8 (Homo sapiens, UniProt Q9NR97)).
Output: 8.1

Input: Give the reported IC50 for `COc1ccc(-c2cc3ncc(-c4ccc(N5CCN(C(C)C)CC5)cc4)cc3n2C)cc1F` (system: human TLR8 (Homo sapiens, UniProt Q9NR97)).
Output: 41.7

Input: Give the reported IC50 for `COc1ccc(-c2cc3ncc(-c4ccc(C(=O)N5CCN(C(C)C)CC5)cc4)cc3n2C)cc1OC` (system: human TLR8 (Homo sapiens, UniProt Q9NR97)).
Output: 10.2

Input: Give the reported IC50 for `Cn1c(-c2ccc(S(C)(=O)=O)cc2)cc2ncc(-c3ccc(N4CCN(CC(C)(C)O)CC4)cc3)cc21` (system: human TLR8 (Homo sapiens, UniProt Q9NR97)).
Output: 11.2

Input: Give the reported IC50 for `COc1ccc(-c2cc3ncc(-c4ccc(N5CCN(CCC(C)(C)O)CC5)cc4)cc3n2C)cc1OC` (system: human TLR8 (Homo sapiens, UniProt Q9NR97)).
Output: 1.3

# credit: patent US20230322770A1
